# credit: ChEMBL document CHEMBL3351241

Target: 17-beta-hydroxysteroid dehydrogenase type 1 (Homo sapiens)
Sequence (P14061 whole entry): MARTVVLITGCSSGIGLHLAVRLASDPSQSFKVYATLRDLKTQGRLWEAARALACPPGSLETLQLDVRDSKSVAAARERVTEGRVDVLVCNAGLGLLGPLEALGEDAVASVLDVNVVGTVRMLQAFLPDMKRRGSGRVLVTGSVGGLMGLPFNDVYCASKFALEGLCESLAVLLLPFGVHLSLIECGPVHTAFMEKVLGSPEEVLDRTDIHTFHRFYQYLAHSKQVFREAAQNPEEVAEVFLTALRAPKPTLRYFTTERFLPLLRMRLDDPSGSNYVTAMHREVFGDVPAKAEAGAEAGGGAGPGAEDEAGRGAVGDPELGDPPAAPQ
MEASURE NAME: IC50
Entry format: amount then unit.

Query: # lookup: IC50 of COc1cc(-c2cccc(C)c2)sc1C(=O)N(C)c1cccc(C)c1
Result: 16.7 µM

----------
Assay: Half-life in human liver microsome S9 fraction at 3 uM up to 45 mins by LC-MS/MS analysis
Assay type: ADME, microsomes
MEASURE NAME: half-life at 3 µM (min)
// return numeric value only (unit: min, not printed)

Query: # lookup: half-life at 3 µM of COc1cccc(N(C)C(=O)c2ccc(-c3cccc(N(C)C)c3)s2)c1
Result: 29

----------
Listed compounds paired with reported Ratio IC50
Organism: Homo sapiens
Assay: Selectivity factor, ratio of IC50 for human placental cytosolic17beta-HSD1 to IC50 for human placental microsomal 17beta-HSD2
Just the number, please, no unit attached.

Answered examples (3):
- Cc1ccc(-c2ccc(C(=O)N(C)c3ccccc3C)s2)cc1: 3
- Cc1cccc(-c2ccc(C(=O)N(C)c3cccc(Cl)c3)s2)c1: 29
- COc1cc(-c2cccc(C)c2)sc1C(=O)N(C)c1cccc(C)c1: 132

API: the following record is the query input.
Query: # lookup: Ratio IC50 of Cc1cccc(-c2cnc(C(=O)N(C)c3cccc(C)c3)s2)c1
Result: 51

----------
Target: Estrogen receptor (Homo sapiens) (UniProt P03372)
Sequence (P03372 whole entry): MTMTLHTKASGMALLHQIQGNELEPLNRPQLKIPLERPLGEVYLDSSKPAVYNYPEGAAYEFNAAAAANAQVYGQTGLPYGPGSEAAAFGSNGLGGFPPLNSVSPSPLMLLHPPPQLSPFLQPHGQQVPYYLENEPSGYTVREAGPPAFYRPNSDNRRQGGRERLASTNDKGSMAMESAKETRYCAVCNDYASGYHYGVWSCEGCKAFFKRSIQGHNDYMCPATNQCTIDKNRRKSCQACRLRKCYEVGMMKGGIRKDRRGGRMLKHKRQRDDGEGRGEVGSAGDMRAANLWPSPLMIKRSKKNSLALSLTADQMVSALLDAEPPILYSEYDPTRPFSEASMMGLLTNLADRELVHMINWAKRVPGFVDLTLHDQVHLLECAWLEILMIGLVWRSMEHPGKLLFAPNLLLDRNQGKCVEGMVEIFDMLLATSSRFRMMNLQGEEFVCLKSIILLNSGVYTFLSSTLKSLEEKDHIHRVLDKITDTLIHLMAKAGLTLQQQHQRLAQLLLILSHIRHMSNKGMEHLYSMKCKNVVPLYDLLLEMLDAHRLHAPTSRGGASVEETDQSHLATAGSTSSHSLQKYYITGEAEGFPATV
Test: Displacement of [3H]E2 from human recombinant ERalpha at 3 nM after 16 to 20 hrs by cell-free assay
MEASURE NAME: inhibition
Entry format: amount then unit.

Answered examples (5):
- Cc1cccc(-c2cnc(C(=O)N(C)c3cccc(C)c3)s2)c1: 9%
- Cc1ccc(-c2ccc(C(=O)N(C)c3cccc(C)c3)s2)cc1: 11%
- Cc1cccc(-c2ccc(C(=O)N(C)c3cccc(C)c3)cc2)c1: 8%
- Cc1cccc(-c2ccc(C(=O)N(C)c3cccc(Cl)c3)s2)c1: 16%
- Cc1cccc(-c2ccc(C(=O)N(C)c3cccc(C)c3)s2)c1: 12%

API: the following record is the query input.
Query: # lookup: inhibition of Cc1ccc(N(C)C(=O)c2ccc(-c3ccc(C)c(C)c3)s2)cc1
Result: 5%

----------
Target: Estrogen receptor beta (Homo sapiens)
Test: Displacement of [3H]E2 from human recombinant ERbeta at 10 nM after 16 to 20 hrs by cell-free assay
# if value of inhibition reaches 10%, tag YES; if it stays below, tag NO

• Cc1ccc(-c2ccc(C(=O)N(C)c3cccc(C)c3)s2)cc1 = YES
• Cc1cccc(-c2ccc(C(=O)N(C)c3cccc(C)c3)s2)c1 = YES
• Cc1cccc(-c2ccc(C(=O)N(C)c3cccc(Cl)c3)s2)c1 = YES
• Cc1cccc(-c2cnc(C(=O)N(C)c3cccc(C)c3)s2)c1 = NO
• Cc1ccc(N(C)C(=O)c2ccc(-c3ccc(C)c(C)c3)s2)cc1 = NO

Here's the next entry for you.
Query: Is the recorded value of inhibition equal to or greater than 10% for this compound? Cc1cccc(-c2ccc(C(=O)N(C)c3cccc(C)c3)cc2)c1
Result: YES
